Catalogue of compounds with associated Emax
target or test system: GlunN1/GluN2A glutamate receptors (Homo sapiens (Human), UniProt Q05586+Q12879)
Sequence (Q12879 23-1464, other chains not shown): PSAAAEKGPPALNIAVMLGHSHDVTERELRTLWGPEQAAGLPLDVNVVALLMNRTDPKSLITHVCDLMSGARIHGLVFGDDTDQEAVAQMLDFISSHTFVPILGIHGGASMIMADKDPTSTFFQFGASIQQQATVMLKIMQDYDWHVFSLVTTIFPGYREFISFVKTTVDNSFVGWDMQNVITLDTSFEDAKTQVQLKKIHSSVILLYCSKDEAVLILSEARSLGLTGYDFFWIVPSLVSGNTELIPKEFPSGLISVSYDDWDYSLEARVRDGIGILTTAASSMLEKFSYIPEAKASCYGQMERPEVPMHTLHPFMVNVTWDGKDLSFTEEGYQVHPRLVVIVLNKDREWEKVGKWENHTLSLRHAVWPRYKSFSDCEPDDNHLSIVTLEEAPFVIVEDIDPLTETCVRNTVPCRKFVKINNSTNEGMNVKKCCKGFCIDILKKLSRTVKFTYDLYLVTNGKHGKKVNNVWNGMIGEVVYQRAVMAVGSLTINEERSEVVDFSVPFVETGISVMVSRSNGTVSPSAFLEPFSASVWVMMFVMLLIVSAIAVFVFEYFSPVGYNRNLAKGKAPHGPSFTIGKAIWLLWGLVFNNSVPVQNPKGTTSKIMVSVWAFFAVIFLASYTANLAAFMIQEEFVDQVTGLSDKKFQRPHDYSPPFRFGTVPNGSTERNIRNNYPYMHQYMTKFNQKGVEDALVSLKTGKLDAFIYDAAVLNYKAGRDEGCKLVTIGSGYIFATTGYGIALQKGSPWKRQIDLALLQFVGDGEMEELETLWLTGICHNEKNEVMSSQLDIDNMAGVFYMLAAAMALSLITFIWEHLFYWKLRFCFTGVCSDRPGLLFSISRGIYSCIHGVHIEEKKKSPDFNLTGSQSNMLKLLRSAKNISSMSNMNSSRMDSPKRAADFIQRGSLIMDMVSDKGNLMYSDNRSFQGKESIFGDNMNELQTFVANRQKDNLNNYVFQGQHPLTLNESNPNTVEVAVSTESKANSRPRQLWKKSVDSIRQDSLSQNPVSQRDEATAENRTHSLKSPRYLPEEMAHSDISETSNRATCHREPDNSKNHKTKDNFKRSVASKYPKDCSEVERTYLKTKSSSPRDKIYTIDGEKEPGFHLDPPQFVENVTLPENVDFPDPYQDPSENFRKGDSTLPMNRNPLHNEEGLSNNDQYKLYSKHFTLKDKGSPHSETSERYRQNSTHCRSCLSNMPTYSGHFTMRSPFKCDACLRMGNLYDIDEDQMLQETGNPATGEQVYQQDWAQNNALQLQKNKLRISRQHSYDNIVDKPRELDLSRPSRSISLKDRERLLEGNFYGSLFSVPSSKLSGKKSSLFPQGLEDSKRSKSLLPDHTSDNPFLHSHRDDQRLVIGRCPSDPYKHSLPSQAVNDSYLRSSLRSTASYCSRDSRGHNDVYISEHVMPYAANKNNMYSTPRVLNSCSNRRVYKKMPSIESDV
test details: Whole-cell patch clamp of mammalian cells (Ionworks Barracuda), positive allosteric modulation, GluN1/GluN2A
Assay type: cell-based
condition context: HEK293 cells; % potentiation of current elicited with EC20 L-glutamate and 30 μM glycine; read-out: Avg Emax 2A (%)
Protocol: The measurements were performed using Ion Works Barracuda platform following this procedure: Electrophysiological Procedures: • a) Intracellular solution (mM): 50 mM CsCl, 90 mM CsF, 2 mM MgCl2, 5 mM EGTA, 10 mM HEPES. Adjust to pH 7.2 with CsOH. • b) Extracellular solution, HB-PS (composition in mM): NaCl, 137; KCl, 1.0; CaCl2), 5; HEPES, 10; Glucose, 10; pH adjusted to 7.4 with NaOH (refrigerated until use). • c) Holding potential: −70 mV, potential during agonist/PAM application: −40 mV. […]
Answer with a number only, understood to be in %.

CC[C@]1(O)CC[C@@]2(C)C(=CC[C@H]3[C@@H]4CC[C@H]([C@H](C)CC[C@H](O)c5cccc(F)c5)[C@@]4(C)CC[C@@H]32)C1 [Compound 6896] :: 216

Query: Data request, read-out Emax, for CC[C@]1(O)CC[C@@]2(C)C(=CC[C@H]3[C@@H]4CC[C@H]([C@H](C)CC[C@@H](O)c5ccccn5)[C@@]4(C)CC[C@@H]32)C1 [Compound 6348]
Reply: 79.7

Query: Data request, read-out Emax, for C[C@H](CCC(O)Cc1ccccc1)[C@H]1CC[C@H]2[C@@H]3CC=C4C[C@@](C)(O)CC[C@]4(C)[C@H]3CC[C@]12C (some centres unmarked) [Compound 660]
Reply: 195

Query: Data request, read-out Emax, for CC[C@H](O)CC[C@@H](C)[C@H]1CC[C@H]2[C@@H]3CC=C4C[C@](O)(CC)CC[C@@H]4[C@H]3CC[C@]12C [Compound 8585]
Reply: 194

Query: Data request, read-out Emax, for CC(C)[C@H]1CC[C@@](O)(CC[C@@H](C)[C@H]2CC[C@H]3[C@@H]4CC[C@H]5C[C@](O)(C(F)(F)F)CC[C@]5(C)[C@H]4CC[C@]23C)CC1 [Compound 4258]
Reply: 184

====

target or test system: GlunN1/GluN2A glutamate receptors (Homo sapiens (Human), UniProt Q05586+Q12879)
test details: Whole-cell patch clamp of mammalian cells (Ionworks Barracuda), positive allosteric modulation, GluN1/GluN2A
Assay type: cell-based
condition context: HEK293 cells; % potentiation of current elicited with EC20 L-glutamate and 30 μM glycine; read-out: Avg Emax 2A (%)
Catalogue of molecules with associated Emax
Answer with a number only, understood to be in %.

C[C@H](CC[C@H](O)C1CCCCC1)[C@H]1CC[C@H]2[C@@H]3CC[C@H]4C[C@](O)(C(F)(F)F)CC[C@]4(C)[C@H]3CC[C@]12C :: 164

Query: Query Emax on GlunN1/GluN2A glutamate receptors (Homo sapiens (Human), UniProt Q05586+Q12879) for "CC[C@]1(O)CC[C@H]2[C@@H](CC[C@@H]3[C@@H]2CC[C@]2(C)[C@@H]([C@H](C)CCCC4(O)CCC(F)(F)CC4)CC[C@@H]32)C1"
Reply: 68.7

Query: Query Emax on GlunN1/GluN2A glutamate receptors (Homo sapiens (Human), UniProt Q05586+Q12879) for "C[C@H](CCC[C@H](O)C(F)(F)F)[C@H]1CC[C@H]2[C@@H]3CC[C@H]4C[C@](O)(C(F)(F)F)CC[C@]4(C)[C@H]3CC[C@]12C"
Reply: 113

Query: Query Emax on GlunN1/GluN2A glutamate receptors (Homo sapiens (Human), UniProt Q05586+Q12879) for "CC[C@]1(O)CC[C@H]2[C@@H](CC[C@@H]3[C@@H]2CC[C@]2(C)[C@@H]([C@H](C)CCC(C)(C)O)CC[C@@H]32)C1"
Reply: 105

Query: Query Emax on GlunN1/GluN2A glutamate receptors (Homo sapiens (Human), UniProt Q05586+Q12879) for CC[C@]1(O)CC[C@H]2C(=CC[C@@H]3[C@@H]2CC[C@]2(C)[C@@H]([C@H](C)CCCC(O)C(C)(C)C)CC[C@@H]32)C1 (some centres unmarked)
Reply: 154
